# percent inhibition of PvRBP2b161–1454 binding to reticulocytes per record follows
- Target Or System: T1, P. vivax Reticulocyte Binding Protein 2b, residues 161–1454 (P. vivax strain Salvador I, UniProt A5K736, DyLight 488 (NHS ester) in the FRET assay; biotin (BirA site) in the competition ELISA between human mAbs)
- T1 construct: PvRBP2b, P. vivax strain Salvador I, PlasmoDB PVX_094255 (total length 2806 amino acids), residues 161-1454; also called PvRBP2b_(161–1454); PvRBP2b; source: recombinant; expressed and purified in a similar manner as PvRBP2b161–470 (E. coli SHuffle T7; HisTrap, Q-Sepharose, size exclusion) or as previously described
- Method Summary: flow cytometry on cells; PvRBP2b161–1454 at 4 μg/mL with human mAbs at 5-fold molar excess and reticulocytes, 1 h room temperature; inhibition relative to no mAb
- Measurement Context: both partners purified
Please respond with the number in % and leave the unit unwritten.

PvRBP2b human mAb 243244 (antibody, V domains shown, variable region as the Fab heavy chain in PDB 6WNO; cloned into a human IgG1 backbone, full-length antibody; lambda light chain; as the Fab light chain in PDB 6WNO; IgG1; same clonal group as 237235; source: Expi293 HEK cells, transfected, purified (Protein A, gel filtration)) VH: QVQLVESGGGVVQSGKSLRVSCAASGFTFSSYGMHWVRQAPGKGLEWVAFISYDGDNKYSADSVKGRLTISRDNSKNTLYLQMNSLRPEDTAVYYCAKESNYGENAFDIWGQGTMVTVSS VL: QSALTQPRSVSGSPGQSVTISCTGTSSDVGFYNFVSWYQHHPGKAPKLIIYDVSERPSGVPDRFSGSKSGNTASLSISGLQPEDEADYYCCSYAGTYTFVFGSGTKVTVL: 43

Could you now look at the following binder, please?
Input: So what does the record say about percent inhibition of PvRBP2b161–1454 binding to reticulocytes for PvRBP2b human mAb 251249 (antibody, V domains shown, variable region as the Fab heavy chain in PDB 6WOZ; cloned into a human IgG1 backbone, full-length antibody; kappa light chain; as the Fab light chain in PDB 6WOZ; IgG1; source: Expi293 HEK cells, transfected, purified (Protein A, gel filtration)) VH: EVQLVESGGGLVKPGGSLRLSCEASGFLFSSYSMNWVRQAPGKGLEWVSSITGYSSEVFYTDSVKGRFTVSRDNSKNSLYLQMDSLRAEDTAVYYCARALTIFGVVITDYWFFDLWGRGTLVTVSS VL: EIVLTQSPATLSLSPGDRATLSCRASQSVTTFLAWYQQKPGQAPRLLIYDVSNRATGIPARFSGSGSGTDFTLTISSLEPEDFAVYYCQQRSNWGLTFGGGTKVEIK ?
Output: 59
